# experimental_system: PMN nicotinic receptors
# assay_overview: saturation of specific [3H]-epibatidine binding to smokers' polymorphonuclear leukocytes
# Set-up: species or system human
# study_conditions: second site, read-out: Kd1, very high affinity site
pKd: −log10 of the molar value.
endpoint_label: pKd

INSERT INTO assay_data (compound, experimental_system, recorded_measurement) VALUES
  ('Clc1ccc(C2CC3CCC2N3)cn1 (stereo not shown) [epibatidine]', 'PMN nicotinic receptors', 10.25);

----------
# experimental_system: PMN nicotinic receptors
# assay_overview: saturation of specific [3H]-epibatidine binding to smokers' polymorphonuclear leukocytes
# Set-up: species or system human
# study_conditions: first site, read-out: Kd2, high affinity site
endpoint_label: Kd (nM)

INSERT INTO results (compound, recorded_measurement) VALUES
  ('Clc1ccc(C2CC3CCC2N3)cn1 (stereo not shown) [epibatidine]', 2.11);
